settings: in water, 298.2 K
recorded endpoint: solubility (mole fraction)

>>> test_result("C=C(C)[C@@H]1CC[C@]2(CO)CC[C@]3(C)[C@H](CC[C@@H]4[C@@]5(C)CC[C@H](O)C(C)(C)[C@@H]5CC[C@]43C)[C@@H]12")
"5e-06"

====

settings: in acetonitrile, 293.2 K
recorded endpoint: solubility (mole fraction)

>>> test_result("C=C(C)[C@@H]1CC[C@]2(CO)CC[C@]3(C)[C@H](CC[C@@H]4[C@@]5(C)CC[C@H](O)C(C)(C)[C@@H]5CC[C@]43C)[C@@H]12")
0.000269

====

conditions: in n-hexadecane, 328.2 K
recorded endpoint: solubility (mole fraction)

>>> test_result("C=C(C)[C@@H]1CC[C@]2(CO)CC[C@]3(C)[C@H](CC[C@@H]4[C@@]5(C)CC[C@H](O)C(C)(C)[C@@H]5CC[C@]43C)[C@@H]12")
0.000117

Recorded values, source BigSolDB 2.1.
